Sourced from the Human Domainome abundance scans (Beltran et al. 2025)

B1: POU domain, class 2, transcription factor 3, residues 186 to 260; numbered along this chain, Q9UKI9 (parent)
chain: SDLEELEKFAKTFKQRRIKLGFTQGDVGLAMGKLYGNDFSQTTISRFEALNLSFKNMCKLKPLLEKWLNDAESSP

Variants of: B1
test name: abundance fitness (aPCA) (normalised: wild type 0, dead -1); higher = more abundant; growth selection in yeast, the domain comes from the species named
condition details: Homo sapiens
Assign Condition met whenever abundance fitness does not fall below -0.2; assign Condition not met whenever it does.

Consider the worked cases shown below.
var	class name
N37D	Condition met
Q41D	Condition met
E5D	Condition met
A71M	Condition met
G32R	Condition met

Continue with the next variant.
Please check the record L60M and state if its abundance fitness is at or above -0.2. Condition met
